system: MOLM-14 cells; assay: Cell proliferation assay; assay type: cell-based, human; conditions: read-out: Cell viability (EC50); MOLM-14 cells, 72 hours after treatment
Where no end group is shown, it is not given here. two‑PEG linker = not defined here; YHJ1039 = not defined here
Property name: pEC50
Keep it numeric: pEC50 is minus log10 of the concentration in mol/L.

Exercise: Find the recorded pEC50 belonging to KYH1872 (26): two-PEG linker connects YHJ1039 with a seven amino acid SelK peptide (PPPMAGG) ({YHJ1039-two‑PEG linker}-PPPMAGG; reading uncertain) and report it.
Key: 5.98
